test system: SF-539 CNS; test: NCI tumour cell line growth inhibition, 48 h; in the data active = GI50 below about 0.43 µM; inactive = the rest
Outcomes: YES (active), NO (inactive)

MOLECULE	QUALITATIVE_LABEL
O=C1c2ccc([N+](=O)[O-])cc2-c2c1c1ccccc1c(=O)n2CCCNCCCNCCCn1c2c(c3ccc([N+](=O)[O-])cc3c1=O)C(=O)c1ccccc1-2	NO
COc1cc(CCN)c2c(c1OC)SSSSS2	NO
COc1ccc(C2SCC(=O)N2NC(=O)C(O)c2ccccc2)cc1OC (centres undefined)	NO
C1C[OH+]CC[OH+]CCNCC[OH+]CC[OH+]CCN1.[Cl-].[Pt+4]	NO
O=C(c1ccc2ccccc2c1)c1c(C(F)(F)F)n([O-])c2cc(F)c(F)cc2[n+]1=O	NO
CC1(C)CC[C@H](Nc2ncc(C(F)(F)F)c(-c3c[nH]c4c(P(C)(C)=O)c(C#N)ccc34)n2)CN1	YES
CN(C)c1ccc([O-])cc1.CN(C)c1ccc([O-])cc1.CN(C)c1ccc([O-])cc1.CN(C)c1ccc([O-])cc1.[Ti+4]	NO
CCCc1c(CC)c(=N)c2ccccc2n1C	NO
CCn1c(C(=O)N(C2CC2)C2CC2)cc2c3c(ncn3C)c(Nc3cc(C)n(C)n3)nc21	NO

---

system: SW-620 colon; assay: NCI tumour cell line growth inhibition, 48 h; in the data active = GI50 below about 0.43 µM; inactive = the rest
Outcomes: T = active, F = inactive

COMPOUND	QUALITATIVE_LABEL
COc1cc(CCN)c2c(c1OC)SSSSS2	T
Oc1ccc(C(c2ccc(O)cc2)c2ccc(Cl)cn2)cc1	F
Cc1cc(/C=C\c2ccc3ccccc3[n+]2C)c(O)c2ncccc12	T
CC(CN(C)C)Nc1c2ccccc2nc2cccc([N+](=O)[O-])c12 (configuration not stated)	T
COc1cc2c(c(OC)c1OC)-c1ccc(N)c(=O)cc1[C@@H](NC(C)=O)CC2	T
CC(C)CNCC(O)COc1ccc(C(C)(C)c2ccc(OCC(O)CNCC(C)C)cc2)cc1 (configuration not stated)	F
Cc1ccc(/C(=N\N=C(N)N)c2ccccc2)cc1	T
Cc1ccc(S(=O)(=O)NCCNC2=CC(=O)c3nc4ccccc4c4ccnc2c34)cc1	F
CCc1n(Cc2ccc3ccccc3n2)cc[n+]1Cc1ccc2ccccc2n1	F
CN(C)c1ccc([O-])cc1.CN(C)c1ccc([O-])cc1.CN(C)c1ccc([O-])cc1.CN(C)c1ccc([O-])cc1.[Ti+4]	F
C=CCN(/C=C1/C(=O)O[C@H](COC)[C@@]2(C)C1=C(O)C(=O)C1=C2[C@H](OC(C)=O)C[C@]2(C)C(=O)CC[C@@H]12)CC=C	F
COc1ccc2c(c1)/C(=C\c1cccnc1)C(=O)N2	F
COc1ccc(N2Cc3cnc(Nc4ccccc4)nc3N([C@@H]3CC[C@@H](O)C3)C2=O)cc1	F
CCCc1c(CC)c(=N)c2ccccc2n1C	F
Clc1ccc(N2N=C(c3cccc(Nc4ccncc4)c3)CC2c2ccc3c(c2)OCO3)cc1 (configuration not stated)	F
COc1ccc(C2SCC(=O)N2NC(=O)C(O)c2ccccc2)cc1OC (configuration not stated)	F
O=C(Nc1ccc(F)cc1)c1ccc(NC2=C(Cl)C(=O)N(Cc3ccccc3)C2=O)cc1	F

---

system: COLO 205 colon; experiment: NCI tumour cell line growth inhibition, 48 h
TGI overview

MOLECULE	TGI
COC1OC(Cc2nnc(C)o2)C(OCc2ccccc2)C(OCc2ccccc2)C1OCc1ccccc1 (configuration not stated)	44.1 µM
O=C(NCc1cccc(C(F)(F)F)c1)c1cc2sccc2nc1C(F)(F)F	> 100 µM
CC1CC2CC(=O)CC3(C1)C2CCCN3CCCO (configuration not stated)	> 100 µM
CCc1c(Cc2cccc3ccccc23)n2c(nc1=O)SCC2OCCO (configuration not stated)	> 100 µM
O=C(/C=C/c1ccccc1)CC1OC(=O)c2ccccc21 (configuration not stated)	> 100 µM
CCC(=O)O[C@H]1CC[C@H]2[C@@H]3CC[C@H]4CC(=O)[C@H](C)C[C@]4(C)[C@H]3CC[C@]12C	> 100 µM
O=C1NC(=O)/C(=C/c2ccc(S(=O)(=O)N/N=C/c3ccc(Cl)cc3)cc2)N1	> 100 µM
CC(C)CNCC(O)COc1ccc(C(C)(C)c2ccc(OCC(O)CNCC(C)C)cc2)cc1 (configuration not stated)	3.24 µM
COC(=O)C1C(O)CC(c2ccccn2)N(Cc2ccccc2)C1c1ccccn1 (configuration not stated)	> 100 µM
COc1nc(N(C)C)nc2c1n(C)c[n+]2C	> 100 µM
CCOC(=O)C(=[N+]=[N-])C(=O)Nc1nn2nnnc2c2ccccc12	> 100 µM
O=C(O)C1C2CCC(O2)C1C(=O)N1CCCCC1 (configuration not stated)	3.87 µM
COc1ccc(-c2cc(=O)c3c(C)cc(C)nc3[nH]2)cc1	42.6 µM
O=C1C=CC=CC2CC=C[C@@H](O)C12 (some centres not stated)	39.5 µM
CN(C)CCNC(=O)c1ccc(NCCCN(C)CCCNc2ccc3c(=O)n(CCN(C)C)c(=O)n4c5ccccc5c(=O)c2c34)c2c(=O)c3ccccc3[nH]c12	0.353 µM
C/C(=N\NC(=S)N1CCCCC1)c1cccc(C)n1	13.7 µM
Cc1nc2c3c(ncn2n1)Oc1c(c(-c2ccccc2)nn1-c1ccccc1)C3c1ccc(Cl)cc1 (configuration not stated)	> 100 µM
CN(C)/N=C/c1cn(C)c(=O)n(C)c1=O	> 100 µM
Oc1cc(O)c(Oc2cccc(O)c2O)c(O)c1	> 100 µM
c1ccc(CCNCc2ccco2)nc1	> 100 µM
COc1ccc2c(c1)/C(=C\c1cccnc1)C(=O)N2	> 100 µM
CC(=O)Nc1ccc(C(=O)NN2C(=O)C(Cl)C2c2ccc([N+](=O)[O-])cc2)cc1 (configuration not stated)	> 100 µM
